Assay: Bioanalysis of brain and plasma samples (exposure, UPLC-MS/MS)
Format: in vivo, rat
Conditions: male, Sprague Dawley, brain and plasma, po; Rat, 30 mg/kg p.o., 3 hours post dose; read-out: Brain/Plasma ratio
readout_label: Kp at 3 h

(a) [2H]C([2H])([2H])Oc1ccc(C(=O)Nc2ccc(F)c([C@@]3(C)N=C(N)[C@@](C)(F)C[C@@H]3F)c2)nc1
(b) COc1ccc(C(=O)Nc2ccc(F)c([C@@]3(C)N=C(N)[C@@](C)(F)C[C@@H]3F)c2)nc1
Query block: Choose between a and b : whose measured Kp at 3 h value is numerically larger? Please identify the chosen entry by its label.
Result block: a

----------
Assay: Bioanalysis of brain and plasma samples (exposure, UPLC-MS/MS)
Assay type: in vivo, rat
Conditions: male, Sprague Dawley, brain and plasma, po; Rat, 10 mg/kg p.o., 3 hours post dose; read-out: Brain/Plasma ratio
readout_label: Kp at 3 h

(1) COc1ccc(C(=O)Nc2ccc(F)c([C@@]3(C)N=C(N)[C@@](C)(F)C[C@@H]3F)c2)nc1
(2) [2H]C([2H])([2H])Oc1ccc(C(=O)Nc2ccc(F)c([C@@]3(C)N=C(N)[C@@](C)(F)C[C@@H]3F)c2)nc1
Query block: So which one has the bigger Kp at 3 h here, 1 or 2 ? Your answer should be the label of the entry you select.
Result block: 2

----------
Target: BACE1 (Homo sapiens (Human))
Sequence (P56817 46-501): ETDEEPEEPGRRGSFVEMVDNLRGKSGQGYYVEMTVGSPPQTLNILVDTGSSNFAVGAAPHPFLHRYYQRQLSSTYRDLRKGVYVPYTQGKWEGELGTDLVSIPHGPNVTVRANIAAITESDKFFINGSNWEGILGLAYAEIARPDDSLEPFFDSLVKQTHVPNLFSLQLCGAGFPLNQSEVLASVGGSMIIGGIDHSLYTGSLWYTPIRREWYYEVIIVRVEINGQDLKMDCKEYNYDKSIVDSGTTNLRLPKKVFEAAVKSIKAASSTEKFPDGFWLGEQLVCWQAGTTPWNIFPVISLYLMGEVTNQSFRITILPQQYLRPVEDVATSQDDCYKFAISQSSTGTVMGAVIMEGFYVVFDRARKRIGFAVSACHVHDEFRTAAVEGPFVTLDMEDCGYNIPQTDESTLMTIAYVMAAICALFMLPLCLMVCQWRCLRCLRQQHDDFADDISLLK
Experiment: BACE1 efficacy assay (FRET-based, commercial BACE1 kit)
Format: biochemical
Conditions: 10 μM test compound
readout_label: inhibition at 10 µM (%)

[
  {
    "smiles_input": "Cc1nc(C(=O)Nc2ccc(F)c([C@@]3(C)N=C(N)[C@](C)(F)C[C@@H]3F)c2)co1",
    "u": "%",
    "result_number": 101
  },
  {
    "smiles_input": "C[C@]1(F)C[C@H](F)[C@@](C)(c2cc(NC(=O)c3ccc(Br)cn3)ccc2F)N=C1N",
    "u": "%",
    "result_number": 103
  },
  {
    "smiles_input": "C[C@@]1(F)C[C@H](F)[C@@](C)(c2cc(NC(=O)c3ccc(F)cn3)ccc2F)N=C1N",
    "u": "%",
    "result_number": 101
  },
  {
    "smiles_input": "C[C@]1(F)C[C@H](F)[C@@](C)(c2cc(NC(=O)c3ccc(F)cn3)ccc2F)N=C1N",
    "u": "%",
    "result_number": 103
  }
]
